Assay: Thermodynamic solubility (shake-flask)
Format: physicochemical
Settings: aqueous phosphate buffer, 25 °C, pH 7.4, aqueous buffer, thermodynamic from solid, phosphate buffer pH 7.4, 24 hours
Param threshold (400 µM) applies to solubility at 24 h; output satisfied when value >= threshold, not satisfied when value < threshold.

[[record]]
molecule = "C[C@@H]1Cc2c([nH]c3ccccc23)[C@@H](c2nccc(OCCNCCCF)c2F)N1CC1(F)CC1 [Example 99]"
label = "not satisfied"

[[record]]
molecule = "C[C@@H]1Cc2c([nH]c3ccccc23)[C@@H](c2nccc(OCCNCCCF)c2F)N1CC(F)(F)CO [Example 97]"
label = "satisfied"

[[record]]
molecule = "Cc1ncc(OCCNCCCF)cc1[C@@H]1c2[nH]c3ccccc3c2C[C@@H](C)N1CC(F)(F)F [Example 37]"
label = "satisfied"

[[record]]
molecule = "Cc1ccc2[nH]c3c(c2c1)C[C@@H](C)N(CC(F)(F)CO)[C@@H]3c1c(F)ccc(OCCNCCCF)c1F [Example 63]"
label = "not satisfied"


Query block: hey, is solubility at 24 h for this one >= 400 µM? Cc1c([C@@H]2c3[nH]c4ccccc4c3C[C@@H](C)N2C[C@H](C)C(=O)O)ccnc1OCCNCCCF [Example 132]
Result block: satisfied

Query block: Follow-up entry: COc1c(OCCNCCCF)cccc1[C@@H]1c2[nH]c3ccccc3c2C[C@@H](C)N1CC1(F)COC1 [Example 5]
Result block: not satisfied

Query block: Follow-up entry: COc1c(F)cc(OCCNCCCF)cc1[C@@H]1c2[nH]c3ccccc3c2C[C@@H](C)N1CC(F)(F)F [Example 27]
Result block: not satisfied

Query block: Follow-up entry: C[C@@H]1Cc2c([nH]c3ccccc23)[C@@H](c2c(F)ccc(OCCNCCCF)c2F)N1CC1(F)COC1 [Example 13]
Result block: satisfied

Query block: Follow-up entry: COc1ccc(OC[C@H](C)NCCCF)cc1[C@@H]1c2[nH]c3ccccc3c2C[C@@H](C)N1CC(F)(F)CO [Example 49]
Result block: not satisfied

Query block: Follow-up entry: Cc1ccc(OCCNCCCF)c(F)c1[C@@H]1c2[nH]c3ccccc3c2C[C@@H](C)N1CC(F)(F)F [Example 80]
Result block: not satisfied

Query block: Follow-up entry: Cc1c(OCCNCCCF)ccc(F)c1[C@@H]1c2[nH]c3ccccc3c2C[C@@H](C)N1CC(F)(F)F [Example 33]
Result block: not satisfied

###

What follows is a record of pIC50 for hERG potassium channel (Homo sapiens (Human)).
One number for each entry, as −log10 of the molar value.

Please review the entries below; each comes with its answer.
[[record]]
molecule = "C[C@@H]1Cc2c([nH]c3ccccc23)[C@@H](c2c(F)cnc(OCCNCCCF)c2F)N1CC1(F)CC1"
systemundertest = "hERG potassium channel (Homo sapiens (Human))"
measuredresult = 5.22

[[record]]
molecule = "C[C@@H]1Cc2c([nH]c3ccc(F)cc23)[C@@H](c2c(F)ccc(OCCNCCCF)c2F)N1CC(F)(F)CO"
systemundertest = "hERG potassium channel (Homo sapiens (Human))"
measuredresult = 5.34

[[record]]
molecule = "COc1ccc(NCCNCCCF)c(F)c1[C@@H]1c2[nH]c3ccccc3c2C[C@@H](C)N1CC(F)(F)F"
systemundertest = "hERG potassium channel (Homo sapiens (Human))"
measuredresult = 5.30

[[record]]
molecule = "COc1ncc(OCCNCCCF)cc1[C@@H]1c2[nH]c3ccccc3c2C[C@@H](C)N1CC(F)(F)F"
systemundertest = "hERG potassium channel (Homo sapiens (Human))"
measuredresult = 5.06

[[record]]
molecule = "C[C@@H]1Cc2c([nH]c3ccccc23)[C@@H](c2cc(OCCNCCCF)ccn2)N1CC(F)(F)F"
systemundertest = "hERG potassium channel (Homo sapiens (Human))"
measuredresult = 5.25

[[record]]
molecule = "C[C@@H]1Cc2c([nH]c3ccccc23)[C@@H](c2cc(OCCNCCCF)ccc2Cl)N1CC(F)(F)CO"
systemundertest = "hERG potassium channel (Homo sapiens (Human))"
measuredresult = 5.54


List reported pIC50 for each of these molecules:
1. C[C@@H]1Cc2c([nH]c3ccccc23)[C@@H](c2ccnc(OCCNCCCF)c2)N1CC(F)(F)F
2. C[C@@H]1Cc2c([nH]c3ccccc23)[C@@H](c2cc(OCCNCCCF)ccc2C#N)N1CC(F)(F)F
3. C[C@@H]1Cc2c([nH]c3ccccc23)[C@@](C)(c2cccc(OCCNCCCF)c2)N1CC(F)(F)F
4. COc1nnc(OCCNCCCF)cc1[C@@H]1c2[nH]c3ccccc3c2C[C@@H](C)N1CC(F)(F)F
5. COc1ccc(OCCNCCCF)c(F)c1[C@@H]1c2[nH]c3ccccc3c2C[C@@H](C)N1CC(F)(F)CO
6. COc1ccc(NCCNCCCF)nc1[C@@H]1c2[nH]c3ccccc3c2C[C@@H](C)N1CC(F)(F)F
7. C[C@@H]1Cc2c([nH]c3ccccc23)[C@@H](c2cccc(OCCNCCCF)c2)N1CC1(F)COC1

Result block:
5.14
5.27
5.11
4.72
5.41
5.51
5.36

###

Assay: Thermodynamic solubility (shake-flask)
Assay type: physicochemical
Settings: aqueous phosphate buffer, 25 °C, pH 7.4, aqueous buffer, thermodynamic from solid, phosphate buffer pH 7.4, 24 hours
Give measured solubility at 24 h for each item. Keep answers brief.

Please review the entries below; each comes with its answer.
[[record]]
molecule = "C[C@@H]1Cc2c([nH]c3ccccc23)[C@@H](c2cccc(OCCNCCCF)c2)N1CC(F)(F)F"
measuredresult = "74 µM"

[[record]]
molecule = "Cc1c(OCCNCCC(F)F)ccc(F)c1[C@@H]1c2[nH]c3ccc(F)cc3c2C[C@@H](C)N1C[C@@H](C)C(=O)O"
measuredresult = "> 1000 µM"

[[record]]
molecule = "C[C@@H]1Cc2c([nH]c3ccccc23)[C@@H](c2c(F)ccc(OCCNCCCF)c2Cl)N1CC(C)(C)C(=O)O"
measuredresult = "> 1000 µM"

[[record]]
molecule = "C[C@@H]1Cc2c([nH]c3ccccc23)[C@@H](c2c(F)c(F)cc(OCCNCCCF)c2F)N1CC(F)(F)F"
measuredresult = "55 µM"


List reported solubility at 24 h for each of these compounds:
1. COc1ccc(NCCNCCCF)nc1[C@@H]1c2[nH]c3ccccc3c2C[C@@H](C)N1CC(F)(F)F
2. C[C@@H]1Cc2c([nH]c3ccccc23)[C@@H](c2ccnc(OCCNCCCF)c2Cl)N1CC(F)(F)CO
3. Cc1c(NCCNCCCF)ccc(F)c1[C@@H]1c2[nH]c3ccccc3c2C[C@@H](C)N1C[C@H](C)C(=O)O

Result block:
358 µM
431 µM
> 1000 µM

###

What follows is a record of IC50 for hERG potassium channel (Homo sapiens (Human), UniProt Q12809).
Numbers only, in µM.

Please review the entries below; each comes with its answer.
[[record]]
molecule = "Cc1ccc(OCCNCCCF)c(C)c1[C@@H]1c2[nH]c3ccccc3c2C[C@@H](C)N1CC(F)(F)F"
systemundertest = "hERG potassium channel (Homo sapiens (Human), UniProt Q12809)"
unitsofmeasure = "µM"
measuredresult = 10

[[record]]
molecule = "COc1ccc(OCCNCCCF)cc1[C@@H]1c2[nH]c3ccccc3c2C[C@@H](C)N1CC(F)(F)F"
systemundertest = "hERG potassium channel (Homo sapiens (Human), UniProt Q12809)"
unitsofmeasure = "µM"
measuredresult = 3.8

[[record]]
molecule = "C[C@@H]1Cc2c([nH]c3c(F)cccc23)[C@@H](c2c(F)ccc(OCCNCCCF)c2F)N1CC(F)(F)CO"
systemundertest = "hERG potassium channel (Homo sapiens (Human), UniProt Q12809)"
unitsofmeasure = "µM"
measuredresult = 4.4

[[record]]
molecule = "C[C@@H]1Cc2c([nH]c3ccccc23)[C@@H](c2nccc(OCCNCCCF)c2F)N1CC(F)(F)CO"
systemundertest = "hERG potassium channel (Homo sapiens (Human), UniProt Q12809)"
unitsofmeasure = "µM"
measuredresult = 18

[[record]]
molecule = "C[C@@H]1Cc2c([nH]c3ccccc23)[C@@H](c2c(F)cnc(OCCNCCCF)c2F)N1CC(F)(F)F"
systemundertest = "hERG potassium channel (Homo sapiens (Human), UniProt Q12809)"
unitsofmeasure = "µM"
measuredresult = 8.1


List reported IC50 for each of these compounds:
1. C[C@@H]1Cc2c([nH]c3ccccc23)[C@@H](c2c(F)ccc(NCCNCCCF)c2F)N1CC(F)(F)F
2. Cc1ncc(OCCNCCCF)cc1[C@@H]1c2[nH]c3ccccc3c2C[C@@H](C)N1CC(F)(F)F
3. C[C@@H]1Cc2c([nH]c3cccc(F)c23)[C@@H](c2c(F)ccc(OCCNCCCF)c2F)N1CC(F)(F)CO
4. Cc1ccc2[nH]c3c(c2c1)C[C@@H](C)N(CC(F)(F)CO)[C@@H]3c1c(F)cnc(OCCNCCCF)c1F
5. Cc1ccc2[nH]c3c(c2c1)C[C@@H](C)N(CC(F)(F)CO)[C@@H]3c1c(F)ccc(OCCNCCCF)c1F

Result block:
4.8
3.5
5
5.4
4.7

List reported IC50 for each of these compounds:
1. C[C@@H]1Cc2c([nH]c3ccccc23)[C@@H](c2nccc(OCCNCCCF)c2F)N1CC1(F)CC1
2. COc1ccc(OCCNCCCF)cc1[C@@H]1c2[nH]c3ccc(F)cc3c2C[C@@H](C)N1CC(F)(F)CO
3. C[C@@H]1Cc2c([nH]c3ccccc23)[C@@H](c2cc(F)cc(OCCNCCCF)c2F)N1CC(F)(F)F
4. C[C@@H]1Cc2c([nH]c3ccccc23)[C@@H](c2nccc(OCCNCCCF)c2F)N1CC1(F)COC1
5. C[C@@H]1Cc2c([nH]c3cc(F)ccc23)[C@@H](c2c(F)ccc(OCCNCCCF)c2F)N1CC(F)(F)CO

Result block:
[20, 2.7, 11, 19, 2.7]

Cited source for all entries: patent US10221173B2
